This collection of values is drawn from the supplement of paper PMC6555819.

test system: FXR:RXRa (NR concentration 270 nM, RXRa partner concentration 90 nM); assay: PBM binding z-score (relative to random genomic background probes); higher = stronger binding; sequences stand for … in GC…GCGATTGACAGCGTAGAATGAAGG
assayEndpoint: PBM binding z-score
Answer field: number only, no words.

1. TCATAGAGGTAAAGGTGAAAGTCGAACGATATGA 1.13
2. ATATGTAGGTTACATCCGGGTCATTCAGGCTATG 2.66

Entry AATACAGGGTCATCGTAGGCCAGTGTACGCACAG has what PBM binding z-score?
6.9

What do we get for TCTAGCAGGCCCGAGGGTCACTCAAGAGGTACGG ?
0.726

What do we get for CCTGCAAGGTCAATGGTCAGCTAAAGCAGCTCGC ?
6.55

What do we get for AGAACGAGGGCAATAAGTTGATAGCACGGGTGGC ?
0.456

What do we get for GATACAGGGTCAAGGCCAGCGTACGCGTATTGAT ?
6.93

What do we get for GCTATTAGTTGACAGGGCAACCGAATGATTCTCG ?
-0.301

---

tested on: LXRa:RXRa (NR concentration 270 nM, RXRa partner concentration 90 nM); assay: PBM binding z-score (relative to random genomic background probes); higher = stronger binding; sequences stand for … in GC…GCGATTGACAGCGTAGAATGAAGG
assayEndpoint: PBM binding z-score
Answer field: number only, no words.

1. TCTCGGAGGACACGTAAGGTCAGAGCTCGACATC 3.03
2. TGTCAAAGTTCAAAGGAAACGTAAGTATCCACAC 5.91
3. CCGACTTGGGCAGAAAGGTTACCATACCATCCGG 0.228

Entry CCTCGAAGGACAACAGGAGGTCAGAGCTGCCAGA has what PBM binding z-score?
1.97

What do we get for TCGAGTAGGTTATCAATGGGGCATTCAGCTTTCT ?
1.14

What do we get for GCTTGTAGATCAAGGGTAAGAAAGACTAAGCTAA ?
-0.469

What do we get for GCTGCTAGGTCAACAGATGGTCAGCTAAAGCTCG ?
2.22

What do we get for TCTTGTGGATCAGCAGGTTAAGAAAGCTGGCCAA ?
0.254

What do we get for GGAACGATGGCATTCGAGTTGATAGCATGGCGAT ?
-0.604

What do we get for CAAACTAGTTCACCGGAAGGTCAAAGTCCGCATG ?
4.89

What do we get for TAGCCTAGGTCATTCAGGAGCCAGTATAGAAAGC ?
3.63

What do we get for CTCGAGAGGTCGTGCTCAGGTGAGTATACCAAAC ?
2.94

---

test system: RARa:RXR (NR concentration 270 nM, RXRa partner concentration 90 nM); test: PBM binding z-score (relative to random genomic background probes); higher = stronger binding; sequences stand for … in GC…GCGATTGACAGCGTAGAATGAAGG
PBM binding z-score values by entry
Answer field: number only, no words.

Entry ACTATTAGTCGACTTAGGGCAACCGATACGACGC has what PBM binding z-score?
0.128

What do we get for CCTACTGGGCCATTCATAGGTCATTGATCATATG ?
2.11

What do we get for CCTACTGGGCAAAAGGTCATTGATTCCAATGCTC ?
5.73

---

PBM binding z-score values by entry
test system: LXRb homodimer (NR concentration 270 nM); assay: PBM binding z-score (relative to random genomic background probes); higher = stronger binding; sequences stand for … in GC…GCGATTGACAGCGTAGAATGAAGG
Answer field: number only, no words.

# count of solved cases: 5
1. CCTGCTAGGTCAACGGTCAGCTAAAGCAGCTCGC 0.4
2. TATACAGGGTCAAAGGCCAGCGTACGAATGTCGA 2.36
3. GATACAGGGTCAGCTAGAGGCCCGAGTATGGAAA -0.813
4. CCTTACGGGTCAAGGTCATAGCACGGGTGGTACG 0.624
5. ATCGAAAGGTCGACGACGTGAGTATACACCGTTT 0.501

# input for lookup
Entry GCTTACGAGTCAAAGGTTATAGCATGAATAGAAT has what PBM binding z-score?
-0.261

---

system: LXRb homodimer (NR concentration 270 nM); experiment: PBM binding z-score (relative to random genomic background probes); higher = stronger binding; sequences stand for … in GC…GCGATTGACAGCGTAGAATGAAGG
assayEndpoint: PBM binding z-score
Answer field: number only, no words.

1. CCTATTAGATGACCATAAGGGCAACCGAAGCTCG 0.565
2. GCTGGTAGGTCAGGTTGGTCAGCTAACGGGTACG -0.0209

Entry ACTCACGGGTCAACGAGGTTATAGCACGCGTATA has what PBM binding z-score?
0.564

---

test system: THRa:RXRa (NR concentration 90 nM, RXRa partner concentration 90 nM); assay: PBM binding z-score (relative to random genomic background probes); higher = stronger binding; sequences stand for … in GC…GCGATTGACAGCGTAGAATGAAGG
Label Fulfilled when PBM binding z-score is at or above 2; anything below gets Not fulfilled.

Previously resolved entries follow.
1) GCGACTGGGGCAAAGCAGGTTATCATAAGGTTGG Fulfilled
2) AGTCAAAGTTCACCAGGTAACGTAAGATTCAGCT Fulfilled
3) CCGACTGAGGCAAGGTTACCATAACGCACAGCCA Not fulfilled
4) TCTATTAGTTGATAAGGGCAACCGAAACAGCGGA Not fulfilled
5) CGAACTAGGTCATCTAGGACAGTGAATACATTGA Fulfilled

Here's the next entry for you.
Kindly determine if PBM binding z-score recorded for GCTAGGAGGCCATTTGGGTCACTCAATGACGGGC is above or exactly 2.
Fulfilled

---

test system: RARb:RXRa (NR concentration 270 nM, RXRa partner concentration 90 nM); assay: PBM binding z-score (relative to random genomic background probes); higher = stronger binding; sequences stand for … in GC…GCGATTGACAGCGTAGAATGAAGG
PBM binding z-score values by entry
Answer field: number only, no words.

# count of solved cases: 10
1. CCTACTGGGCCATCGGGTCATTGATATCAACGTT 1.9
2. TCGAGTAGGTTAGTCGTGGCATTCAGCCAACATA -0.00522
3. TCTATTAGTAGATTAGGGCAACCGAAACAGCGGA 0.344
4. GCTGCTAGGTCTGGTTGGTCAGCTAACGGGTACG 0.00464
5. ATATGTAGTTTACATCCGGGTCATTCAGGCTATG 1.51
6. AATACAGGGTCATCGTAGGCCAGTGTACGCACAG 4.35
7. CTACCAAGGTGAACAAGGTCGATGATTACTATTC 1.95
8. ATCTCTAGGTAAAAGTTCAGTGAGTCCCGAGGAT 2.21
9. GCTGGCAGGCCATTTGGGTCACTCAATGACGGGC 1.63
10. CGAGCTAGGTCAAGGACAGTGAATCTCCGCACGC 3.74

Entry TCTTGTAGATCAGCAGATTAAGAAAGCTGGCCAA has what PBM binding z-score?
-0.229

What do we get for CAAACTAAGTCACCGGAAGGTCAAAGTCCGCATG ?
3.46

What do we get for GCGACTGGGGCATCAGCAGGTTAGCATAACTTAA ?
0.511

What do we get for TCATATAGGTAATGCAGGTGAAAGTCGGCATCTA ?
0.41

What do we get for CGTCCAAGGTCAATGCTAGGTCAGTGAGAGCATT ?
5.23

What do we get for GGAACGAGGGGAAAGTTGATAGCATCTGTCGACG ?
0.213

What do we get for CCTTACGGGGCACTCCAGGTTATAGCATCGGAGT ?
1.05

---

test system: PXR:RXRa (NR concentration 270 nM, RXRa partner concentration 90 nM); experiment: PBM binding z-score (relative to random genomic background probes); higher = stronger binding; sequences stand for … in GC…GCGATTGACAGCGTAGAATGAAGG
Would you mind classing the entries by PBM binding z-score? Ranges: low = under 0.5, intermediate = from 0.5 up to 3, high = 3 and over

1) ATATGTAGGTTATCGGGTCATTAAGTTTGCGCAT high
2) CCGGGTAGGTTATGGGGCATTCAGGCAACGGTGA low
3) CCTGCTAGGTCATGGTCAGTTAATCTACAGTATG intermediate
4) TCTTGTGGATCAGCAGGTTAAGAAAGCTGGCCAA low
5) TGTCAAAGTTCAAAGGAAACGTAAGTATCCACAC high
6) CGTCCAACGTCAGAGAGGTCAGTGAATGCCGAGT intermediate

Which class holds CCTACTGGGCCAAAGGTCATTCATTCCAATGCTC ?
high

What do we get for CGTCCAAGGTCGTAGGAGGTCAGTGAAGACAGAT ?
high

What do we get for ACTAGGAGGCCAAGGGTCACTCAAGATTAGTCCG ?
high
